assay: NCI Yeast Anticancer Drug Screen. Data for the cln2 rad14 strain (AID 165);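 further: 0% = growth equal to vehicle treated cultures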; details: S. cerevisiae cln2 rad14 strain, at 50.0 µM, stronger effect = higher value
About 79,000 compounds went through this panel and 15% of them were active in at least one assay; those are over-represented in the sample as a whole.
Catalogue of growth inhibition values
Please give a number only; it is taken to be in %.

Answered cases to consult:
CC(C)=CCc1c(O)ccc(C(=O)[C@H]2C(c3ccc(O)cc3O)CC(C)=C[C@@H]2c2c(O)cc(O)c3c(=O)c(CC=C(C)C)c(-c4ccc(O)cc4O)oc23)c1O (stereo partly specified): 89
CCNC(=S)NNC(=O)c1ccc(N=NN(C)C)cc1: -13.4
CCC(=O)Nc1ccc(C)cc1C: 13.7
COC(=O)c1cc2c(cc1CC1Cc3cc4c(cc3C1=O)CCC4)CCC2 (stereo unspecified): 9.3

// growth inhibition lookup, compound = CCC(=O)c1ccccc1C#N , result: -4.3

// growth inhibition lookup, compound = Cc1ccc(NC(=O)CCSC(=O)Nc2ccc(C)cc2)cc1 , result: 21.2

// growth inhibition lookup, compound = CC(C)N(C(=O)c1ncccc1C(=O)c1ccccn1)C(C)C , result: -5.2

// growth inhibition lookup, compound = CN(C)/N=C1/CCC(C(F)(F)F)(C(F)(F)F)O1 , result: 28.9
